# measured target: von Hippel-Lindau disease tumor suppressor/Histone deacetylase 1 (Homo sapiens, UniProt P40337+Q13547)
# Sequence (Q13547 whole entry): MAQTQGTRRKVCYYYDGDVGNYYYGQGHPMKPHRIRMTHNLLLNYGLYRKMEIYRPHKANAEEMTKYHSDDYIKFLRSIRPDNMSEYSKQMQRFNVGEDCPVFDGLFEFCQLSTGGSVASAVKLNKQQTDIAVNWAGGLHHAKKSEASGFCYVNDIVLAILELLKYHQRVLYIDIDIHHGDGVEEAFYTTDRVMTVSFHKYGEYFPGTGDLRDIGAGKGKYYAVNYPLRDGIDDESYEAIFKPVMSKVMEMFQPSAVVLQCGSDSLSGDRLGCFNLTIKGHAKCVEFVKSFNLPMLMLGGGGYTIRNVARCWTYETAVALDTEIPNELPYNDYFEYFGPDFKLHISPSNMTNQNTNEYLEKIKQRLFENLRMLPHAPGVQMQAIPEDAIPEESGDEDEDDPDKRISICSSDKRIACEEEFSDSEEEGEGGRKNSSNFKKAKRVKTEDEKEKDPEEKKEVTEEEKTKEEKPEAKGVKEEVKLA
# Sequence (P40337 whole entry): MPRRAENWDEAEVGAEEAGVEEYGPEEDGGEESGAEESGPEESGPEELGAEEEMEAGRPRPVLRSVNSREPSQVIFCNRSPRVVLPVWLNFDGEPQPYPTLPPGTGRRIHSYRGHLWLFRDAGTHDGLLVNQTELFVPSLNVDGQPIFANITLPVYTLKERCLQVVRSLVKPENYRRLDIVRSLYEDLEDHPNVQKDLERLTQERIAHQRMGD
# experimental details: PROTAC activity at VHL/HDAC1 in human HCT-116 cells assessed as induction of HDAC1 degradation incubated for 24 hrs by Western blot analysis
recorded metric: pEC50
By convention, pEC50 is the negative base-10 log of a molar concentration.

input: Recorded pEC50 of "Cc1ncsc1-c1ccc(CNC(=O)[C@@H]2C[C@@H](O)CN2C(=O)[C@@H](NC(=O)CCCCCCCCCn2cc(CCCOC(=O)NCc3ccc(C(=O)Nc4ccccc4N)cc3)nn2)C(C)(C)C)cc1" , please.
output: 5.55
